# Tested on: RXF 393 renal
# assay.method.text: NCI tumour cell line growth inhibition, 48 h
TGI listing for selected compounds.

In the examples that follow, each entry is paired with its recorded TGI.
CC/C(Cc1ccccc1)=C(\c1ccc(OCCN2CCCCCC2)cc1)c1ccc(OC(=O)NCc2ccccc2)cc1 = 3.35 µM
C1=C(c2ccccc2)CN(c2ccccc2)OC1 = > 100 µM
COc1c2c(c3c(c1C1OC(C)[C@@H](C)O1)CC(C)(C)O3)C(=O)c1ccccc1C2=O (stereo not given in full) = > 100 µM

Name the reported TGI value associated with the compound O=C1NC(N/N=C\C(O)C(O)C(O)CO)=N/C1=C/c1ccccc1 (stereo not given)
> 100 µM

Next compound: O=c1cnn(C/C=C\CO)c(=O)[nH]1
> 100 µM
